Sourced from patent US8017727B2

SUBJECT OF TEST: kappa receptor (Rattus norvegicus)
Construct: from tissue; host or cells: rat brain homogenate
ASSAY TEXT: Competition for binding of a radiolabelled kappa peptide to rat brain homogenates
RUN CONDITIONS: IC50, Day 82, first of triplicates
pIC50: −log10 of the molar value.
ENDPOINT LABEL: pIC50

>>> print(df.to_string())
                                   molecule  endpoint_label  reported_result
0  CC[C@@H](C)[C@@H](NC(=O)[C@@H](Cc1ccccc1)NC(=O)[C@H](N)Cc1ccccc1)C(=O)N[C@H](CCCNC(=N)N)C(N)=O [H-ffir-NH2]           pIC50             8.40

###

ASSAY TEXT: Stability of MTLPs in simulated intestinal fluid pH 6.8 with pancreatin (HPLC recovery)
RUN CONDITIONS: pH 6.8, % Recovery, Peptide + 100 uL SIF pH 6.8, 37 C, 10 min
ENDPOINT LABEL: recovery (%)

COMPOUND STRUCTURE STRING	ENDPOINT LABEL	REPORTED RESULT
CC(C)C[C@@H](NC(=O)[C@@H](CC(C)C)NC(=O)[C@H](NC(=O)[C@H]1CCCN1C(=O)[C@@H](CC(C)C)NC(=O)[C@@H](CC(C)C)NC(=O)[C@H](NC(=O)[C@@H](C)NC(=O)[C@@H](C)NC(=O)[C@@H](C)NC(=O)[C@@H](CCCCN)NC(=O)[C@@H](CCCCN)NC(=O)[C@H](N)CCCCNS(=O)(=O)c1cccc2c(N(C)C)cccc12)C(C)C)C(C)C)C(=O)N[C@H](C)C(=O)N[C@H](C)C(=O)N1CCC[C@@H]1C(N)=O	recovery	97.4

###

ASSAY TEXT: Stability of MTLPs in simulated intestinal fluid pH 6.8 with pancreatin (HPLC recovery)
RUN CONDITIONS: pH 6.8, % Recovery, Peptide + 200 uL SIF pH 6.8, 37 C, 30 min

MOLECULE	recovery (%)
CC(C)C[C@@H](NC(=O)[C@@H](CC(C)C)NC(=O)[C@H](NC(=O)[C@H]1CCCN1C(=O)[C@@H](CC(C)C)NC(=O)[C@@H](CC(C)C)NC(=O)[C@H](NC(=O)[C@@H](C)NC(=O)[C@@H](C)NC(=O)[C@@H](C)NC(=O)[C@@H](CCCCN)NC(=O)[C@@H](CCCCN)NC(=O)[C@H](N)CCCCNS(=O)(=O)c1cccc2c(N(C)C)cccc12)C(C)C)C(C)C)C(=O)N[C@H](C)C(=O)N[C@H](C)C(=O)N1CCC[C@@H]1C(N)=O [ZElan207]	92.8

###

ASSAY TEXT: Stability of MTLPs in simulated intestinal fluid pH 6.8 with pancreatin (HPLC recovery)
RUN CONDITIONS: pH 6.8, % Recovery, Peptide + 200 uL SIF pH 6.8, 37 C, 10 min

COMPOUND STRUCTURE STRING	recovery, %
CC(C)C[C@@H](NC(=O)[C@@H](CC(C)C)NC(=O)[C@H](NC(=O)[C@H]1CCCN1C(=O)[C@@H](CC(C)C)NC(=O)[C@@H](CC(C)C)NC(=O)[C@H](NC(=O)[C@@H](C)NC(=O)[C@@H](C)NC(=O)[C@@H](C)NC(=O)[C@@H](CCCCN)NC(=O)[C@@H](CCCCN)NC(=O)[C@H](N)CCCCNS(=O)(=O)c1cccc2c(N(C)C)cccc12)C(C)C)C(C)C)C(=O)N[C@H](C)C(=O)N[C@H](C)C(=O)N1CCC[C@@H]1C(N)=O	96.3
